molecular target: T1, soluble KIR3DL1*002-Fc (human, UniProt P43629 22-338); assay: SPR (BIACORE T-100), kinetics
T1 construct: also called KIR3DL1 allele 002; Allele 002; not shown: Fc domain
T1 sequence (P43629 other isoform, or with tags, fused parts or gaps): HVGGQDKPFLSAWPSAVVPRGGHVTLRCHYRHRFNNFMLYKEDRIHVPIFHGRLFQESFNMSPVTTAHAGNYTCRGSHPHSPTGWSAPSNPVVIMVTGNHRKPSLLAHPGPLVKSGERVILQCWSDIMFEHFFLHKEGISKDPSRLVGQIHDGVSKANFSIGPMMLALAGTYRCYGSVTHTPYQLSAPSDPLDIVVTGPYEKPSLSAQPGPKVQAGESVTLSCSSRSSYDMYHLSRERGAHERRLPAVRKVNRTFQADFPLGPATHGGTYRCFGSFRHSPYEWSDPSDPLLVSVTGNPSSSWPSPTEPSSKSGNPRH

{"Binder": "ET160-73 (antibody, human IgG1, V domains shown, Tested as human IgG1 (hIgG1), kappa light chain) VH: QVQLVQSGAEVKKPGESLKISCKGSGYSFTSYWIGWVRQMPGKGLEWMGIIYPGDSDTRYSPSFQGQVTISADKSISTAYLQWSSLKASDTAMYYCARGREQLWLDGMDVWGQGTTVTVSS VL: DVVMTQSPLSLPVTLGQPASISCRSTQSLVHSDGNTYLNWFQQRPGQSPRRLIYGVSNRDFGVPDRFSASGSGTDFTLKINRVEAEDVGVYYCMQGTHWPLTFGQGTKVEIKR", "kon / M⁻¹ s⁻¹": 38900}
